# System: DU-145
# measurement-notes: In vitro cytotoxic activity tested against human prostate cancer (DU145) cell line
# Format: functional
Assign GI50 to each entry below.
Hi! Could you send only the number? It should be in µM, unit omitted.

Form field GI50, entry CSc1ccc(C2=C(c3ccc(SC)cc3)C(=O)N3CCCC3C2)cc1 (stereo not drawn) : 8

Form field GI50, entry COc1ccc(C2=C(c3ccc(SC)cc3)CC3CCCN3C2=O)cc1Br (stereo not drawn) : 0.9

Form field GI50, entry COc1cc(C2=C(c3ccc(SC)cc3)CC3CCCN3C2=O)ccc1O (stereo not drawn) : 8

Form field GI50, entry COc1ccc(C2=C(c3ccc(SC)cc3)CC3CCCN3C2=O)cc1O (stereo not drawn) : 6

Form field GI50, entry COc1ccc(C2=C(c3ccc(SC)cc3)CC3CCCN3C2=O)cc1OC(=O)CNC(=O)OC(C)(C)C (stereo not drawn) : 10

Form field GI50, entry CSc1ccc(C2=C(c3ccc(OCCN4CCOCC4)cc3)C(=O)N3CCCC3C2)cc1 (stereo not drawn) : 20

Form field GI50, entry CSc1ccc(C2=C(c3ccc(F)c(C)c3)C(=O)N3CCCC3C2)cc1 (stereo not drawn) : 0.5

Form field GI50, entry COc1ccc(C2=C(c3ccc(SC)cc3)CC3CCCN3C2=O)cc1OC (stereo not drawn) : 1.5

Form field GI50, entry CSc1ccc(C2=C(c3ccc(C)cc3)C(=O)N3CCCC3C2)cc1 (stereo not drawn) : 0.6

Form field GI50, entry CSc1ccc(C2=C(c3ccc(F)cc3)C(=O)N3CCCC3C2)cc1 (stereo not drawn) : 0.5

Form field GI50, entry COc1ccc(C2=C(c3ccc(SC)cc3)CC3CCCN3C2=O)cc1C (stereo not drawn) : 0.9

Form field GI50, entry CSc1ccc(C2=C(c3ccc(OCC4CO4)cc3)C(=O)N3CCCC3C2)cc1 (stereo not drawn) : 0.5

Form field GI50, entry CSc1ccc(C2=C(c3ccc(O)c(O)c3)C(=O)N3CCCC3C2)cc1 (stereo not drawn) : 60

Form field GI50, entry CSc1ccc(C2=C(c3ccc(C)c(C)c3)C(=O)N3CCCC3C2)cc1 (stereo not drawn) : 0.5

Form field GI50, entry CSc1ccc(C2=C(c3ccc(F)c(F)c3)C(=O)N3CCCC3C2)cc1 (stereo not drawn) : 0.5

Form field GI50, entry CSc1ccc(C2=C(c3ccc(Br)cc3)C(=O)N3CCCC3C2)cc1 (stereo not drawn) : 9

Form field GI50, entry COc1ccc(C2=C(c3ccc(SC)cc3)CC3CCCN3C2=O)cc1 (stereo not drawn) : 0.9

Form field GI50, entry COc1ccc(C2=C(c3ccc(SC)cc3)CC3CCCN3C2=O)cc1OC(=O)C1CCCN1C(=O)OC(C)(C)C (stereo not drawn) : 5

----------
# measurement-notes: Tmax value was determined at a dose of 200 mg/kg (i.p.) in Mice
# Assay type: ADME, organism-based
# Parameters: dose 200 mg/kg, route intraperitoneal
# measurement-conditions: mouse, in vivo, ip
recorded-metric: Tmax
Record the result as number plus unit.

Form field Tmax, entry CSc1ccc(C2=C(c3ccc(C(F)(F)F)cc3)C(=O)N3CCCC3C2)cc1 (stereo not given) : 15 min

Form field Tmax, entry CSc1ccc(C2=C(c3ccc(SC)cc3)C(=O)N3CCCC3C2)cc1 (stereo not given) : 60 min

Form field Tmax, entry CSc1ccc(C2=C(c3ccc(F)cc3)C(=O)N3CCCC3C2)cc1 (stereo not given) : 90 min

Form field Tmax, entry COc1ccc(C2=C(c3ccc(SC)cc3)CC3CCCN3C2=O)cc1OC (stereo not given) : 15 min

Form field Tmax, entry CSc1ccc(C2=C(c3ccc(C)cc3)C(=O)N3CCCC3C2)cc1 (stereo not given) : 15 min
